Target: MMP-13 (Homo sapiens, UniProt P45452)
Construct: made in house; host or cells: baculovirus / insect cells
Assay: biochemical
Conditions: recombinant human MMP-13, MCA peptide substrate 4 μM, pH 7.5, room temperature; read-out: MMP-13 IC50
Hi! Just check whether IC50 is below 0.01 µM. Below gives fulfilled, equal or above gives not fulfilled.

Reference set (5 entries):
{"cpd_smiles": "COCCN(CCOC)CC(=O)N1CCC(C(=O)NO)(S(=O)(=O)c2ccc(Oc3ccc(C(F)(F)F)cc3)cc2)CC1", "tgt": "MMP-13 (Homo sapiens, UniProt P45452)", "qualitative_label": "fulfilled"}
{"cpd_smiles": "CCc1ccc(C(=O)C2CCN(c3ccc(S(=O)(=O)C4(C(=O)NO)CCN(C5CC5)CC4)cc3)CC2)cc1", "tgt": "MMP-13 (Homo sapiens, UniProt P45452)", "qualitative_label": "not fulfilled"}
{"cpd_smiles": "O=C(CNCc1ccccn1)N1CCC(C(=O)NO)(S(=O)(=O)c2ccc(Oc3ccc(C(F)(F)F)cc3)cc2)CC1", "tgt": "MMP-13 (Homo sapiens, UniProt P45452)", "qualitative_label": "not fulfilled"}
{"cpd_smiles": "O=C(NO)C1(S(=O)(=O)c2ccc(N3CCC(Oc4ccc([N+](=O)[O-])cc4C(F)(F)F)CC3)cc2)CCOCC1", "tgt": "MMP-13 (Homo sapiens, UniProt P45452)", "qualitative_label": "not fulfilled"}
{"cpd_smiles": "O=C(Nc1ccccc1Cl)N1CCC(C(=O)NO)(S(=O)(=O)c2ccc(Oc3ccc(OC(F)(F)F)cc3)cc2)CC1", "tgt": "MMP-13 (Homo sapiens, UniProt P45452)", "qualitative_label": "fulfilled"}

I wonder whether CCCCCN(C)C1CCN(c2ccc(S(=O)(=O)C3(C(=O)NO)CCOCC3)cc2)CC1 has IC50 below 0.01 µM. Can you tell?
not fulfilled

I wonder whether CC(C)CN(C)C(=O)C1CCN(c2ccc(S(=O)(=O)C3(C(=O)NO)CCOCC3)cc2)CC1 has IC50 below 0.01 µM. Can you tell?
not fulfilled
